# Test system: 885512-296-R-J2-PDC complex spheroid viability
# Experiment Notes: Anticancer human tumor 885512-296-R-J2-PDC patient-derived breast carcinoma cell line growth inhibition [GQUAD]; active = viability on the fitted dose curve at most 10% of control; inactive = the rest
# Condition Parameters: second compound 3.16 µM; first compound 0.316 µM
Possible outcomes: active, inactive

Compound	Study Target	Class
O=C(NO)c1cnc(N2CCN(S(=O)(=O)c3ccc4ccccc4c3)CC2)nc1 + Cc1cnc(CNC(=O)c2c(=O)c3ccc(N4CCCN(C)CC4)nc3n3c2sc2ccccc23)cn1	885512-296-R-J2-PDC complex spheroid viability	active
COc1cccc2c1C(=O)c1c(O)c3c(c(O)c1C2=O)CC(O)(C(=O)CO)CC3OC1CC(N)C(O)C(C)O1 (stereo not given) + Cc1cnc(CNC(=O)c2c(=O)c3ccc(N4CCCN(C)CC4)nc3n3c2sc2ccccc23)cn1	885512-296-R-J2-PDC complex spheroid viability	inactive
CC(C)n1c(=O)n(C)c2cnc3cc(F)c(-c4ccc(OCCCN5CCCCC5)nc4)cc3c21 + CN(C)c1ccc(Nc2c3ccc(NC(=O)CCN4CCCC4)cc3nc3cc(NC(=O)CCN4CCCC4)ccc23)cc1	885512-296-R-J2-PDC complex spheroid viability	inactive
C=CCn1c(=O)c2cnc(Nc3ccc(N4CCN(C)CC4)cc3)nc2n1-c1cccc(C(C)(C)O)n1 + Cc1cnc(CNC(=O)c2c(=O)c3ccc(N4CCCN(C)CC4)nc3n3c2sc2ccccc23)cn1	885512-296-R-J2-PDC complex spheroid viability	active
CCc1c2c(nc3ccc(O)cc13)-c1cc3c(c(=O)n1C2)COC(=O)[C@]3(O)CC + Cc1cnc(CNC(=O)c2c(=O)c3ccc(N4CCCN(C)CC4)nc3n3c2sc2ccccc23)cn1	885512-296-R-J2-PDC complex spheroid viability	active

====

# Tested on: 885512-296-R-J2-PDC complex spheroid viability
# Experiment Notes: Anticancer human tumor 885512-296-R-J2-PDC cell line growth inhibition [GQUAD];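 note: spheroids exposed to the compounds for one week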
# Condition Parameters: curve of first compound; second compound 1 µM
pIC50: −log10 of the molar value.
Measured pIC50 of individual entries
Test Readout: pIC50

Compound	Measured
CC1COCCN1c1cc(C2(S(C)(=N)=O)CC2)nc(-c2ccnc3[nH]ccc23)n1 (stereo not given) + Cc1cnc(CNC(=O)c2c(=O)c3ccc(N4CCCN(C)CC4)nc3n3c2sc2ccccc23)cn1	> 7.50
C#Cc1c(F)ccc2cc(O)cc(-c3ncc4c(N5CC6CCC(C5)N6)nc(OCC56CCCN5CC(F)C6)nc4c3F)c12 (stereo not given) + CN(C)c1ccc(Nc2c3ccc(NC(=O)CCN4CCCC4)cc3nc3cc(NC(=O)CCN4CCCC4)ccc23)cc1	< 5.00
COc1cc(C2c3cc4c(cc3C(OC3OC5COC(C)OC5C(O)C3O)C3COC(=O)C23)OCO4)cc(OC)c1O (stereo not given) + Cc1cnc(CNC(=O)c2c(=O)c3ccc(N4CCCN(C)CC4)nc3n3c2sc2ccccc23)cn1	> 7.50
O=c1[nH]cc(F)c(=O)[nH]1 + Cc1cnc(CNC(=O)c2c(=O)c3ccc(N4CCCN(C)CC4)nc3n3c2sc2ccccc23)cn1	> 7.50
CCc1c2c(nc3ccc(O)cc13)-c1cc3c(c(=O)n1C2)COC(=O)[C@]3(O)CC + Cc1cnc(CNC(=O)c2c(=O)c3ccc(N4CCCN(C)CC4)nc3n3c2sc2ccccc23)cn1	> 9.00
